Data provenance is PubChem BioAssay AID1851.

Measured on: Cytochrome P450 3A4 (Homo sapiens) (UniProt P08684)
Sequence (P08684 whole entry, looked up): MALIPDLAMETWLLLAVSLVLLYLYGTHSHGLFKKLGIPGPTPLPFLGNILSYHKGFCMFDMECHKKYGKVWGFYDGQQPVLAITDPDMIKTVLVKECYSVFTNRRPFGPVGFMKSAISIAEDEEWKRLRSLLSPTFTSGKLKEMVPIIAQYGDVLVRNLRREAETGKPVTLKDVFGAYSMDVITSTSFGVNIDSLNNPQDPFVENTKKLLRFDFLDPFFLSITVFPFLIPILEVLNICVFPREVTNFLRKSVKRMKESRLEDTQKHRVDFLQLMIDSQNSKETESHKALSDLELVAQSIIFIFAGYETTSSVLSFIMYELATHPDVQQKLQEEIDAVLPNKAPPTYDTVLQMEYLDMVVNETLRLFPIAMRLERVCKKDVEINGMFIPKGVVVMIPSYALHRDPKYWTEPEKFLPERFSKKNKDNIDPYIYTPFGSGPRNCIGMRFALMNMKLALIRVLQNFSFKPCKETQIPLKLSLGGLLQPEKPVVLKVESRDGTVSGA
Protocol details: Cytochrome panel assay with activity outcomes
Applied conditions: recombinant CYP, pro-luciferin dealkylation, luminescence, p450-cyp3a4; series mostly up to 57.1 µM
The whole screen tested about 16,000 compounds, of which about 5,100 (32%) were called active. About 25% were inconclusive and are not listed. Calls come from the whole dose curve; as a rule, active = well fitted curve in the direction sought with a large enough effect; inconclusive = small, poorly fitted or top-dose-only effect, or effect the other way; inactive = no such curve, though single readings can be large or run the other way. Some of the results follow.
Possible outcomes: active, inactive

COc1ccc(O[C@H]2C=C[C@@H](c3ccccc3)O[C@H]2COC(=O)CC/C(C)=N\O[C@@H](C)c2cc(-c3c(C)cc(C)cc3C)no2)cc1 :: active
CC(C)C(NS(=O)(=O)c1cccs1)C(=O)NCCN1CCN(c2ccccc2)CC1 (stereo not drawn) :: active
COc1ccccc1N1CCN(C(=O)C(NS(=O)(=O)c2cccs2)c2ccccc2)CC1 (stereo not drawn) :: active
COc1ccc(O[C@H]2C=C[C@@H](c3ccccc3)O[C@H]2COC(=O)CC/C(C)=N/OCC[C@@H]2C=C[C@H](OC(C)=O)[C@H](COC(C)=O)O2)cc1 :: active
CCCNC(=O)OC[C@@H]1O[C@H](CCO/N=C\C[C@H]2C=C[C@H](OC(C)=O)[C@@H](COC(C)=O)O2)C=C[C@@H]1Oc1ccc(OC)cc1 :: active
Cc1ccccc1/C=C\C1=NCCN1 :: inactive
C[C@@H](C(=O)Nc1ccc2ccccc2c1)[C@@H]1C[C@@]1(C)[C@@H](NC(=O)c1ccncc1Cl)c1ccccc1 :: active
CC(=O)OC[C@@H]1O[C@H](C/C=N\O[C@@H](C)c2cc(-c3c(C)cc(C)cc3C)no2)C=C[C@@H]1OC(C)=O :: active
Cc1nc2c(OCc3ccccc3)cccn2c1CC#N :: active
CCC(C)(C)n1nnnc1C(C(C)C)N(CCCO)Cc1cc2cc(C)ccc2[nH]c1=O (stereo not drawn) :: active
O=C(NCCN1CCN(C(=O)C(c2ccccc2)c2ccccc2)CC1)C(=O)Nc1ccccc1 :: inactive
CCCCC1=NN2C(=N)CC(=O)N=C2S1 :: inactive
C[C@@H](C(=O)Nc1ccc2ccccc2c1)[C@H]1C[C@]1(C)[C@H](NC(=O)c1cnccn1)c1ccccc1 :: active
C[C@@H](C(=O)Nc1ccc2ccccc2c1)[C@@H]1C[C@@]1(C)[C@@H](NC(=O)c1cnccn1)c1ccccc1 :: active
CCC(C)(C)n1nnnc1C(C(C)C)N(Cc1ccco1)Cc1cc2cc3c(cc2[nH]c1=O)OCO3 (stereo not drawn) :: active
Cn1c(-c2sccc2OCc2ccccc2)n[nH]c1=S :: inactive
CCCC[C@H]1C[C@@H]1[C@@H]1N(P(=O)(c2ccccc2)c2ccccc2)[C@](CO)(c2ccccc2)CC12CC2 :: active
CCOC(=O)C1=C(O)C(Nc2nccs2)(C(F)(F)F)N=C1C (stereo not drawn) :: active

---

Measured on: Cytochrome P450 3A4 (Homo sapiens) (UniProt P08684)
Protocol details: Cytochrome panel assay with activity outcomes
Applied conditions: recombinant CYP, pro-luciferin dealkylation, luminescence, p450-cyp3a4; series mostly up to 57.1 µM
In all, about 16,000 compounds went through this assay and about 5,100 (32%) were called active. Not shown: some 25% with an inconclusive outcome. Calls come from the whole dose curve; as a rule, active = well fitted curve in the direction sought with a large enough effect; inconclusive = small, poorly fitted or top-dose-only effect, or effect the other way; inactive = no such curve, though single readings can be large or run the other way. This is one part of the list.
Possible outcomes: active, inactive

Cc1c(-n2cc(C(=O)c3cc(Cl)ccc3O)cc(C#N)c2=O)c(=O)n(-c2ccccc2)n1C :: inactive
CC#CCOC(=O)c1c(C)nc2sc3c(c2c1N)CC[C@@H](O)C3 :: active
Cc1cc([N+](=O)[O-])nn1Cc1ccccc1F :: inactive
Cc1c(O)c(=O)n(-c2ccccc2)n1C :: inactive
Cc1ccc(O)c(C(=O)c2cc(C#N)c(=O)n(-c3c(C)n(C)n(-c4ccccc4)c3=O)c2)c1 :: active
